- Test protocol: Single dose study: plasma pharmacokinetics of eplerenone, open lactone ring form, spironolactone
- Condition parameters: male, human, plasma, po, 300 mg
- Description: The pharmacokinetics, safety and antialdosterone activity of single 10, 50, 100, 300 and 1000 mg oral doses of eplerenone were evaluated in a single-center, randomized, double-blind, placebo-controlled study. The study employed seven parallel dose groups of eight healthy male humans. The eplerenone capsules administered corresponded to the capsules (or combinations of the capsules) disclosed in Examples 4, 5, 7 and 8 above. The placebo was a conventional capsule containing lactose. […]
Assay endpoint: concentration at 4 h (ng/mL)
Write it as a number; the unit ng/mL goes unstated.

Looking up COC(=O)C1CC2=CC(=O)CCC2(C)C23OC2CC2(C)C(CC[C@@]24CCC(=O)O4)C13 (stereo partly shown) , I see its concentration at 4 h listed as 1950

====

- Test protocol: Single dose study: plasma pharmacokinetics of eplerenone, open lactone ring form, spironolactone
- Condition parameters: male, human, plasma, po, 300 mg
Assay endpoint: MRT (h)
Answer in h, number only, no unit symbol.

Looking up COC(=O)C1CC2=CC(=O)CCC2(C)C23OC2CC2(C)C(CC[C@@]24CCC(=O)O4)C13 (stereo partly shown) [eplerenone] , I found its MRT recorded as 5.5

====

- Test protocol: Effect of food study: plasma pharmacokinetics fasted vs high-fat breakfast
- Type: in vivo, humans
- Condition parameters: male, human, plasma, oral, 100 mg, 100 mg eplerenone capsule; Fasted Conditions; 6.0 hours after dosing
Assay endpoint: concentration at 6 h (ng/mL)
Answer in ng/mL, number only, no unit symbol.

The molecule COC(=O)C1CC2=CC(=O)CCC2(C)C23OC2CC2(C)C(CC[C@@]24CCC(=O)O4)C13 (stereo partly shown) showed concentration at 6 h equal to 587

====

- Test protocol: Single dose study: plasma pharmacokinetics of eplerenone, open lactone ring form, spironolactone
- Condition parameters: male, human, plasma, po, 300 mg
Assay endpoint: concentration at 72 h (ng/mL)
Dear colleague, please return just the value in ng/mL, with no unit written.

So for COC(=O)C1CC2=CC(=O)CCC2(C)C23OC2CC2(C)C(CC[C@@]24CCC(=O)O4)C13 (stereo partly shown) [eplerenone] , the logged concentration at 72 h turned out to be 0

====

- Test protocol: Single dose study: plasma pharmacokinetics of eplerenone, open lactone ring form, spironolactone
- Condition parameters: male, human, plasma, po, 1000 mg
Assay endpoint: MRT
In your response, the unit should come after the numeric value.

Lab note: measured MRT of COC(=O)C1CC2=CC(=O)CCC2(C)C23OC2CC2(C)C(CC[C@@]24CCC(=O)O4)C13 (stereo partly shown) was 7 h

====

- Test protocol: Single dose study: plasma pharmacokinetics of eplerenone, open lactone ring form, spironolactone
- Condition parameters: male, human, plasma, po, 300 mg
Assay endpoint: half-life
Answer as a quantity: numeral, then unit.

# molecule COC(=O)C1CC2=CC(=O)CCC2(C)C23OC2CC2(C)C(CC[C@@]24CCC(=O)O4)C13 (stereo partly shown) ; its half-life = 3.7 h

====

// values below are reported concentration at 8 h
- Test protocol: Single dose study: plasma pharmacokinetics of eplerenone, open lactone ring form, spironolactone
- Condition parameters: male, human, plasma, po, 50 mg
Note: a bare number is incomplete; add the unit.

CC(=O)S[C@@H]1CC2=CC(=O)CC[C@]2(C)[C@H]2CC[C@@]3(C)[C@@H](CC[C@@]34CCC(=O)O4)[C@H]12 [spironolactone, Spironolactone, reference compound]; 0 ng/mL

Read the next record carefully.
The molecule listed as COC(=O)C1CC2=CC(=O)CCC2(C)C23OC2CC2(C)C(CC[C@@]24CCC(=O)O4)C13 (some centres unmarked) [eplerenone] has a reported concentration at 8 h of 146 ng/mL
